# Assay protocol: qHTS for Antagonists of gsp, the Etiologic Mutation Responsible for Fibrous Dysplasia/McCune-Albright Syndrome: qHTS; note: nearly all actives have a fitted effect of over 65% in size; note: potency is the fitted concentration of half-maximal effect
# Condition: gsp-mutant cells, cAMP HTRF, 30 min; series mostly up to 76.9 µM
In all, about 340,000 compounds went through this assay and about 1,400 (0.41%) were called active. Not shown: some 4% with an inconclusive outcome. What follows is part of a selection rich in actives, with near analogues and random picks from the rest.
Measured endpoint: Potency

Guide cases for Potency, answers given:
{"Molecule": "Cc1cc(C(=O)NC2CCCc3c2cnn3-c2cccc(C)c2C)c(C)o1 (stereo unspecified)", "Reported measurement": "inactive"}
{"Molecule": "COc1ccc2sc(-c3ccc(N(C)C)cc3)c(-c3ccc4cc[nH]c4c3)c2c1", "Reported measurement": "inactive"}
{"Molecule": "O=C(/C=C/c1ccc(Cl)cc1Cl)c1cccnc1", "Reported measurement": "inactive"}
{"Molecule": "CN(C(=O)c1cccc(NC(=O)Cc2ccc(NC(=O)C3CCN(C(=O)C4CCCCC4)CC3)cc2)c1)C1CCC1", "Reported measurement": "inactive"}
{"Molecule": "Cc1ccc2c(O)c(Cc3ccccc3)c(=O)[nH]c2n1", "Reported measurement": "inactive"}
{"Molecule": "O=C(Nc1nnc(S(=O)(=O)N2CCCCCC2)s1)c1cccc(Br)c1", "Reported measurement": "28.2 µM (active)"}

Supply reported Potency belonging to this molecule: CC(=O)OCC1(O)CC23CCC4c5ccoc5CCC4(C)C2CCC1C3 (stereo unspecified)
inactive

Look up and state reported Potency for COc1ccc(/C=C/C(=O)c2ccc(NS(=O)(=O)c3ccc(C)cc3)cc2)cc1O
inactive

Please report the measured Potency for COc1ccc(C(=O)NC2CCCc3c2cnn3-c2cccc(C)c2C)c(OC)n1 (stereo unspecified)
39.8 µM (active)

Report measured Potency; entry is O=C1COc2c1ccc(O)c2O
inactive

Hello, please tell me recorded Potency for this one: C=CCCC(=O)N1C[C@H]2CON(C)[C@H]2C[C@H]1c1cccc(Nc2ccccc2)c1
inactive

* * *

# Assay protocol: qHTS for Antagonists of gsp, the Etiologic Mutation Responsible for Fibrous Dysplasia/McCune-Albright Syndrome: qHTS; note: nearly all actives have a fitted effect of over 65% in size
# Condition: gsp-mutant cells, cAMP HTRF, 30 min; series mostly up to 76.9 µM
About 1,400 (0.41%) of roughly 340,000 compounds were called active. Inconclusive results (about 4%) are left out. Calls follow the shape of the full dose curve; cell line not stated here. Shown is part of a subset that was picked to be rich in actives.
Please reply with one of these outcomes: True for active, False for inactive

Would you please look over these solved cases?
{"Molecule": "COc1cc(C2c3cc4c(cc3C(O)C3COC(=O)C23)OCO4)cc(OC)c1OC (stereo not given)", "Group": "False"}
{"Molecule": "Cc1[nH]n(-c2cccc(Cl)c2)c(=O)c1-c1ccc(Cl)cc1", "Group": "True"}
{"Molecule": "O=C(c1cccnc1)N(Cc1ccccc1)C(=O)c1cccnc1", "Group": "False"}
{"Molecule": "Nc1nonc1-n1nnc(C(=O)N/N=C/c2c[nH]c3ccccc23)c1-c1ccccc1", "Group": "True"}

Kindly review the next molecule as well.
# fetch the recorded call for COc1ccc2nc(N3C(=O)C(O)=C(C(=O)c4ccco4)C3c3ccco3)sc2c1 (stereo not given) here
False

* * *

# Assay protocol: qHTS for Antagonists of gsp, the Etiologic Mutation Responsible for Fibrous Dysplasia/McCune-Albright Syndrome: qHTS; note: nearly all actives have a fitted effect of over 65% in size
# Condition: gsp-mutant cells, cAMP HTRF, 30 min; series mostly up to 76.9 µM
About 1,400 (0.41%) of roughly 340,000 compounds were called active. Inconclusive results (about 4%) are left out. The call rests on the fitted dose curve; cell line not stated here. The list comes from a sample in which actives are over-represented; it also holds close analogues and randomly drawn compounds.
Use one of these outcomes when replying: T (active), F (inactive)

{"Molecule": "O=C(O)c1ccc(NN=CC2=C(N3CCOCC3)/C(=C/c3ccccc3)CC2)cc1", "Group": "T"}
{"Molecule": "CCn1nccc1C(=O)Nc1ccc(Cl)c(Cl)c1", "Group": "F"}
{"Molecule": "O=C(Nc1ccccc1)c1ccc2c(c1)OCCCO2", "Group": "F"}
{"Molecule": "COc1ccc(CCC(=O)Nc2ccc(Cl)c(S(=O)(=O)N3CCOCC3)c2)cc1OC", "Group": "F"}
{"Molecule": "O=C(Nc1ccc(NC(=O)c2ccc3c(c2)OCO3)cc1)c1cccc(Cl)c1", "Group": "F"}

Attention now turns to another entry.
Check the results log: what was the call for O=S(=O)(c1ccc(NC(=S)NN=C(C2CC2)C2CC2)cc1)N1CCOCC1 ?
F
